# TARGET OF ASSAY: T1, FLAG-tagged human APRIL (human, UniProt O75888 105-250, limits assumed)
# T1 construct: also called FLAG-tagged APRIL; FLAG-APRIL; not shown: FLAG tag
# T1 sequence (looked up): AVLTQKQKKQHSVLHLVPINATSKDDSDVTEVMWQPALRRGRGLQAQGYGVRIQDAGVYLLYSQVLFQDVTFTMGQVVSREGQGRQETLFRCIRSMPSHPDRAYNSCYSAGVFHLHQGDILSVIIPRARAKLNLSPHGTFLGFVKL
# ASSAY PROCEDURE: FLAG-APRIL ELISA after 10 min at 65 °C, antibody at 1 µg/ml
Assign class by % residual binding after heat treatment (room temperature = 100%): not lower than 40% means Met; lower than 40% means Not met.

Field: example entries. Status: answers known.
BINDER	QUALITATIVE LABEL
VH14_1.VL15 (antibody, human IgG4, V domains shown, VH14 with R72S; rest is human IgG4 (S241P, Kabat) and human kappa; also called 14_1.15; antibody 14_1.15) VH: QVQLVQSGAEVKKPGASVKVSCKASGYTFTSYVMHWVRQAPGQGLEWMGYINPYNDAPKYNEKFKGRVTMTSDTSASTAYMELSSLRSDDTAVYYCARGLGYALYYAMDYWGQGTTVTVSS VL: DIVMTQSPSTLSASVGDRVTITCKASQNVGNNVAWYQQKPGKAPKLLISSASNRDSGVPSRFSGSGSGTEFTLTISSLQPDDFATYFCQQYNIYPFTFGQGTKLEIK	Met
VH14_1C.VL15 (antibody, human IgG4, V domains shown, VH14_1 with M70I; Rest is human IgG4 (S241P, Kabat) and human kappa; also called 14_1C.15) VH: QVQLVQSGAEVKKPGASVKVSCKASGYTFTSYVMHWVRQAPGQGLEWMGYINPYNDAPKYNEKFKGRVTITSDTSASTAYMELSSLRSDDTAVYYCARGLGYALYYAMDYWGQGTTVTVSS VL: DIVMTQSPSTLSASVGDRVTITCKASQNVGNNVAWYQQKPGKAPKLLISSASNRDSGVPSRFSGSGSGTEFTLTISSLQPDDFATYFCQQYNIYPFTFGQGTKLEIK	Met
VH14_1G.VL15 (antibody, human IgG4 S228P, kappa, V domains shown, VH14_1 with R67K and V68A; Humanized IgG4 (S241P, Kabat) with human kappa; also called 14_1G.15; 14_1 G.15) VH: QVQLVQSGAEVKKPGASVKVSCKASGYTFTSYVMHWVRQAPGQGLEWMGYINPYNDAPKYNEKFKGKATMTSDTSASTAYMELSSLRSDDTAVYYCARGLGYALYYAMDYWGQGTTVTVSS VL: DIVMTQSPSTLSASVGDRVTITCKASQNVGNNVAWYQQKPGKAPKLLISSASNRDSGVPSRFSGSGSGTEFTLTISSLQPDDFATYFCQQYNIYPFTFGQGTKLEIKR	Not met

Now let's try a different one.
Exercise: # bool: % residual binding after heat treatment (room temperature = 100%) of VH14.VL15 (antibody, human IgG4 S228P, kappa, V domains shown, Humanized IgG4 (S241P, Kabat) with human kappa, from HEK293T) VH: QVQLVQSGAEVKKPGASVKVSCKASGYTFTSYVMHWVRQAPGQGLEWMGYINPYNDAPKYNEKFKGRVTMTRDTSASTAYMELSSLRSDDTAVYYCARGLGYALYYAMDYWGQGTTVTVSS VL: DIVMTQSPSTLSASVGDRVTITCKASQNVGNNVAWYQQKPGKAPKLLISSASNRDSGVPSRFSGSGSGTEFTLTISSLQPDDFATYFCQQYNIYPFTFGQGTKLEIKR >= 40%
Solution: Met
